# ASSAY SYSTEM: Recombinant JAK3 (Homo sapiens, UniProt P52333)
# Construct: purchased Carna Biosciences
# Sequence (P52333 whole entry): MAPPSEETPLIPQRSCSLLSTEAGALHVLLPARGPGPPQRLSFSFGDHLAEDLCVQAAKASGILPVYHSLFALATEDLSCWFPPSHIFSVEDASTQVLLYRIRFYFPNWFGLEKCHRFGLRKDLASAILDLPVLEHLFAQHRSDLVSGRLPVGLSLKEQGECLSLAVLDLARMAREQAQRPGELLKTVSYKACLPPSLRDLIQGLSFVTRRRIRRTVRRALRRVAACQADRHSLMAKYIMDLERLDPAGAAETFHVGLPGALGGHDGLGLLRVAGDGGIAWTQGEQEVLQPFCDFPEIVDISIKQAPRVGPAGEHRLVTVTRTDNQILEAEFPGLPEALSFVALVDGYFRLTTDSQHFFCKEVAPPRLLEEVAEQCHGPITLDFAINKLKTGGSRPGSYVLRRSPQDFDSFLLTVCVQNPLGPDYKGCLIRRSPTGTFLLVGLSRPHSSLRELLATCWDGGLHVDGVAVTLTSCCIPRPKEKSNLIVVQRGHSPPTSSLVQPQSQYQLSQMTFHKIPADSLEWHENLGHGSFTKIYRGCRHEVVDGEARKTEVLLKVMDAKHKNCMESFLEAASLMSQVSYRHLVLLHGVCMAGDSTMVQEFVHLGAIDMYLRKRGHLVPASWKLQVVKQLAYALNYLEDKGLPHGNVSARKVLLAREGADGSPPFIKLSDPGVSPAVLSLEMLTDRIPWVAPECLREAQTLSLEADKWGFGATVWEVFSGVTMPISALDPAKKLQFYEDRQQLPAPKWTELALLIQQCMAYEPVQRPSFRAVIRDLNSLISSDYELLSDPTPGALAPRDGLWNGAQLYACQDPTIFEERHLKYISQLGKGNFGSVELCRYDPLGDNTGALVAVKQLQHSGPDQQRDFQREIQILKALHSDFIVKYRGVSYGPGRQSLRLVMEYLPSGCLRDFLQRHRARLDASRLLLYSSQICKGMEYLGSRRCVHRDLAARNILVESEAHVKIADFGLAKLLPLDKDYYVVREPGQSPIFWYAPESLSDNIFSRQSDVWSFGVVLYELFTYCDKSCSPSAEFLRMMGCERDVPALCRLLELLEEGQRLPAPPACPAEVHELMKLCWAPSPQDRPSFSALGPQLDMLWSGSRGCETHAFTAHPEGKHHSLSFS
# ASSAY NAME: JAK biochemical assay (LANCE Ultra TR-FRET), JAK3
# MEASUREMENT CONTEXT: recombinant JAK3, TR-FRET; read-out: Biochemical Assay (μM) JAK3
This listing pairs molecules with measured IC50.

Example cases with answers are listed next.
CS(=O)(=O)CCNC(=O)N1CCN(c2ccnc3[nH]c(=O)[nH]c23)CC1 [Example 1013] | > 10 µM
CCOc1nc2c(-c3cnn(C(=O)NCC(F)(F)F)c3)ccnc2[nH]1 [Example 1095] | < 1 µM
CC(C)(CO)C(c1ccc(-n2cc(-c3ccnc4[nH]cnc34)cn2)nc1)C(F)(F)F (centres unmarked) [Example 1196] | > 0.1 µM
N#CCC1CCN(C(=O)n2cc(-c3ccnc4[nH]c(=O)[nH]c34)cn2)C1 (centres unmarked) [Example 1057] | > 0.5 µM
CC(C)S(=O)(=O)CCC(c1ccc(-n2cc(-c3ccnc4[nH]cnc34)cn2)nc1)C(F)(F)F (centres unmarked) [Example 1186] | > 0.1 µM
O=C(NCC(F)(F)F)N1CCN(c2ccnc3[nH]c(-c4ccccc4)nc23)CC1 [Example 1022] | < 0.5 µM
CS(=O)(=O)NCc1ccc(-n2cc(-c3ccnc4[nH]cnc34)cn2)nc1 [Example 1090] | 0.12 µM

Moving on to the next molecule.
Q: Recorded IC50 of CC1(C)CN(C(=O)n2cc(-c3ccnc4[nH]c(=O)[nH]c34)cn2)C1 [Example 1037] , please.
Result: > 1 µM
